Format: in vivo, NSG mice
Experimental Setup: female, NSG, mouse, plasma, oral, Half-life (plasma), 0.693/(CL/V)
Readout Name: half-life (h)
Write down the numeric answer in h and omit the unit.

half-life lookup needed for `COc1ccc(-c2nc([C@@H](C)Sc3nc(N)cc(N)n3)c(C)s2)cc1OCCN1CCOCC1` , thanks.
4
